Assay: Compound was tested for the binding affinity towards HPPK Receptor without Mg 2
Set-up: species or system Escherichia coli
MEASURED_ENDPOINT: pKd
As a rule, pKd stands for the negative log10 of the concentration, concentration in M.

Lookup: Note pKd for the compound shown: `Nc1nc2ncc(COP(=O)(O)OP(=O)(O)OP(=O)(O)OP(=O)(O)OC[C@H]3O[C@@H](n4cnc5c(N)ncnc54)[C@H](O)[C@@H]3O)nc2c(=O)[nH]1`
Found: 5.71

Source: ChEMBL document CHEMBL1134404
